test: NCI Yeast Anticancer Drug Screen. Data for the mlh1 rad18 strain (AID 175); settings: S. cerevisiae mlh1 rad18 strain growth inhibition; at 50.0 µM; hits give high values
About 79,000 compounds went through this panel and 15% of them were active in at least one assay; those are over-represented in the sample as a whole. Activity calls are given as the source filed them. Cut-off read from the data, not from the text of the source: active = growth inhibition above about 70%; inactive = the rest.
MEASUREMENT NAME: growth inhibition

Example entries and their recorded answers appear below.
INSERT INTO results (molecule, result_value) VALUES
  ('COC(=O)C(=C(c1ccccc1)c1ccccc1)c1ccccc1', '35.6% (inactive)'),
  ('CCNc1nc(C(F)(F)F)nc2nc[nH]c12', '39.9% (inactive)'),
  ('COC(=O)c1ccccc1CC(Cc1ccc2c(c1)CCC2)C(=O)OC (centres undefined)', '4.25% (inactive)'),
  ('Cc1ccc(S(=O)(=O)N/N=C/c2oc(-c3cccc([N+](=O)[O-])c3)c(-c3cccc([N+](=O)[O-])c3)c2[N+](=O)[O-])cc1', '89.7% (active)'),
  ('COC1OC(CBr)C(OC(c2ccccc2)(c2ccccc2)c2ccccc2)C(OC(c2ccccc2)(c2ccccc2)c2ccccc2)C1OC(c1ccccc1)(c1ccccc1)c1ccccc1 (centres undefined)', '98% (active)');

Query: Consider the molecule O=C1CC(O)C=C1Nc1ccc(Cl)cc1 (centres undefined) . State its measured growth inhibition.
Response: 98.5% (active)

Query: Consider the molecule CCN(CC)CCCNc1cc(C)nc2c1ccc1c2ccc2c(NCCCN(CC)CC)cc(C)nc21 . State its measured growth inhibition.
Response: 94.2% (active)

Query: Consider the molecule [O-][n+]1c2ccccc2nc2cc(Cl)ccc21 . State its measured growth inhibition.
Response: 84.8% (active)

Query: Consider the molecule Nc1cc(F)c2c(c1F)C(=O)c1cc(F)ccc1-2 . State its measured growth inhibition.
Response: 80.7% (active)

Query: Consider the molecule C/C(=N\OS(=O)(=O)O)SC1OC(CO)C(O)C(O)C1O (centres undefined) . State its measured growth inhibition.
Response: -11% (inactive)
